// provenance: patent US20240425606A1

Listed next: entries and their corresponding IC50.
# EXPERIMENTAL_SYSTEM: T1, human IL-11Rα (human, UniProt Q14626 23-363, limits assumed)
# T1 construct: Protein coated on ELISA plates and used in solution for BLI; also called hIL-11Rα; hIL-11R
# T1 sequence: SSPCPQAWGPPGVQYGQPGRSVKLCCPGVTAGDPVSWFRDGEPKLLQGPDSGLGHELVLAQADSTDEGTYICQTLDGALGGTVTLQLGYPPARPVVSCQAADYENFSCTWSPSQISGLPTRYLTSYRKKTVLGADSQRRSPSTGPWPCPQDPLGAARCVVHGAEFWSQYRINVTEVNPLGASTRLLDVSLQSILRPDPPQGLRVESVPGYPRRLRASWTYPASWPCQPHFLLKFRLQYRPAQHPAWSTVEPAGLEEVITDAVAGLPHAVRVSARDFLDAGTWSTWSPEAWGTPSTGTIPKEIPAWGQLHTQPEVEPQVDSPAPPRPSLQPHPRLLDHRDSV
# ASSAY_OVERVIEW: competitive ELISA, IL-11R coated on plate; competitor: biotinylated TS7 (0.1 µg/mL)
Provide only the numeric value, understood in µg/mL.

mAb15 (antibody, V domains shown, Expressed as human IgG4 (S228P EU)) VH: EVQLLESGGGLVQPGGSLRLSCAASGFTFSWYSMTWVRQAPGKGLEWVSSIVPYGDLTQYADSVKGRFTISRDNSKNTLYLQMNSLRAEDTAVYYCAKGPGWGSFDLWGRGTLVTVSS VL: DIQMTQSPSSLSASVGDRVTITCQASQDINNYLNWYQQKPGKAPKLLIYDASNLQTGVPSRFSGSGSGTDFTFTISSLQPEDIATYYCQQHETQTPTFGPGTKVDIK : 1.7

Read the next record carefully.
For the binder shown here, mAb7 (antibody, V domains shown, Expressed as human IgG4 (S228P EU)) VH: EVQLLESGGGLVQPGGSLRLSCAASGFTFSNYAMSWVRQAPGKGLEWVSSIVPYGDLTQYADSVKGRFTISRDNSKNTLYLQMNSLRAEDTAVYYCAKGPGWGSFDLWGRGTLVTVSS VL: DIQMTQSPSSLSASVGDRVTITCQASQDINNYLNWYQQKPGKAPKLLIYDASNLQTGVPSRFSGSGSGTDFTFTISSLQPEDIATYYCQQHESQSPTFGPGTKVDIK , give the reported IC50.
6.9
